The origin of these recorded values is the supplement of paper PMC10567573.

Reported protein stability index is given for each of the following variants.
B1: CPN1 (parent)
chain: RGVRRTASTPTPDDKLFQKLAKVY

Variants of: B1
TEST_DESCRIPTION: protein stability index of a GFP-peptide fusion (GPS, HEK-293T) (PSI 1-6); higher = more stable;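 also: lentivirally expressed fusions sorted by FACS into six bins by GFP to DsRed ratio, PSI derived from sequencing read proportions per bin multiplied by bin number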
CONDITION_SUMMARY: c terminus: a fixed tail appended
Give the figure by itself; no unit, no explanation.

mutation_descriptor=K22F recorded_value=1.96
mutation_descriptor=T11C recorded_value=1.83
mutation_descriptor=P12G recorded_value=2.4
mutation_descriptor=K22C recorded_value=1.8
mutation_descriptor=D13C recorded_value=1.2
mutation_descriptor=Q18D recorded_value=2.32
mutation_descriptor=R1L recorded_value=2.88
mutation_descriptor=P12V recorded_value=1.68
mutation_descriptor=Q18I recorded_value=1.75
mutation_descriptor=T6M recorded_value=2.02

Per the record, T6I has protein stability index of 1.67

Per the record, Q18A has protein stability index of 1.93

Per the record, K19N has protein stability index of 2.16

Per the record, F17W has protein stability index of 2.26

Per the record, F17T has protein stability index of 3.67

Per the record, P10L has protein stability index of 1.02

Per the record, R1D has protein stability index of 2.27

Per the record, K22L has protein stability index of 2.73

Per the record, P12M has protein stability index of 2.01

Per the record, K19L has protein stability index of 2.36

Per the record, Y24V has protein stability index of 2.7

Per the record, P12L has protein stability index of 1.44

Per the record, K19F has protein stability index of 2.53

Per the record, S8H has protein stability index of 1.82

Per the record, K15P has protein stability index of 2.12

Per the record, P12R has protein stability index of 1.89

Per the record, K22D has protein stability index of 1.95
